molecular target: biotinylated 6X-His-GSK3β (human, UniProt P49841 1-420, biotin (site not stated)); assay: BLI
Sequence (P49841 whole entry): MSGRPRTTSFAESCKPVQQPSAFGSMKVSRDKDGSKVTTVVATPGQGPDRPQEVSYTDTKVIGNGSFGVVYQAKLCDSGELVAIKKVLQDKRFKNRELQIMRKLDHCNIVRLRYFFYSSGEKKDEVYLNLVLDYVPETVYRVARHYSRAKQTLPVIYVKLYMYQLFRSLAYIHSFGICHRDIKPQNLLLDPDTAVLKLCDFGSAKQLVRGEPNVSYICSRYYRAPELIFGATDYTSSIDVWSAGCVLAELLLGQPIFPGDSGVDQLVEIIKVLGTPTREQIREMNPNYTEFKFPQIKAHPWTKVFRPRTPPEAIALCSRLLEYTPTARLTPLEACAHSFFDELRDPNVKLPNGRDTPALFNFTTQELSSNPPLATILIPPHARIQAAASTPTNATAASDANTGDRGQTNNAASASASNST
Value kind: pKd
# reply with the number alone; pKd is -log10 of concentration in mol/L

Request: Give pKd for the following binder: VEPQKFAEELIHRLEAVQ [AxinGID]
Response: 4.20
